B1: TRIM63 (parent)
chain: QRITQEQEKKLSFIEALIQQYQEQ

# Variants of: B1
# assay-method-text: protein stability index of a GFP-peptide fusion (GPS, HEK-293T) (PSI 1-6); higher = more stable;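 note: lentivirally expressed fusions sorted by FACS into six bins by GFP to DsRed ratio, PSI derived from sequencing read proportions per bin multiplied by bin number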
# test-conditions: c terminus: a fixed tail appended
Quick list: protein stability index per entry.
Format: numeric value only, no unit, no commentary.

E23F | 2.01
Q24A | 2.41
T4W | 1.71
Y21L | 1.6
L11I | 2.64
I14Q | 3.22
L11M | 1.82
K9T | 2.41

Attention now turns to another entry.
Prompt line: Data request, read-out protein stability index, for I3D
Response line: 2.22
